Entries and their cytotoxicity at 72 h, 100 µM
- assay.summary: Cytotoxicity against mouse RAW264.7 cells at 100 uM after 72 hrs by MTT assay
- Type: cell-based
- assay.context: read-out: INH
The answer is to be given in %; state only the numeric part.

O=C(Cn1c(=O)oc2ccccc21)NCc1cccs1	49.1

-- ask cytotoxicity at 72 h, 100 µM for "O=C(Cn1c(=O)oc2cc(Cl)ccc21)NCc1ccco1" ?
-- reply 50.3

-- ask Okay, and "O=C(Cn1c(=O)oc2ccccc21)NCc1ccccn1" ?
-- reply 38.7

----------
- experimental.target: Enoyl-[acyl-carrier-protein] reductase [NADH] (Mycobacterium tuberculosis)
- assay.summary: Inhibition of Mycobacterium tuberculosis recombinant His6-tagged InhA expressed in Escherichia coli BL21(DE3) using 2-trans-decenoyl-CoA as substrate at 10 uM incubated for 2 hrs prior to substrate addition by spectrophotometry
Label YES when inhibition is at or above 40%; otherwise label NO.

Reference set, count: 5
O=C(Cn1c(=O)oc2cc(Cl)ccc21)Nc1ccccc1	NO
O=C(Cn1c(=O)oc2cc([N+](=O)[O-])ccc21)Nc1ncc([N+](=O)[O-])s1	YES
O=C(Cn1c(=O)oc2ccccc21)Nc1cc(C(F)(F)F)ccc1Cl	NO
O=C(Cn1c(=O)oc2cc([N+](=O)[O-])ccc21)Nc1cc(C(F)(F)F)ccc1Cl	NO
O=C(Cn1c(=O)oc2ccccc21)Nc1ncc([N+](=O)[O-])s1	YES

-- ask Determine whether measured inhibition meets or exceeds 40% for "O=C(Cn1c(=O)oc2ccccc21)Nc1ccc(Cl)c(Cl)c1"
-- reply NO

-- ask Thanks! And "O=C(Cn1c(=O)oc2ccccc21)Nc1cc(Cl)ccc1Cl" ?
-- reply NO

-- ask Also "O=C(Cn1c(=O)oc2ccccc21)Nc1ccccn1" , if possible.
-- reply NO

-- ask Then what about the compound "O=C(Cn1c(=O)oc2cc([N+](=O)[O-])ccc21)NCc1ccco1" ?
-- reply NO

-- ask Follow-up entry: "O=C(Cn1c(=O)oc2cc(Cl)ccc21)Nc1nc2ccc([N+](=O)[O-])cc2s1"
-- reply YES

-- ask Repeat for the following compound: "O=C(Cn1c(=O)oc2cc(Cl)ccc21)NCc1ccco1"
-- reply YES

----------
Catalogue of MIC values
- Test system: Mycobacterium tuberculosis
- assay.summary: Antimicrobial activity against Mycobacterium tuberculosis H37Rv ATCC 27294 after 28 days by two-fold agar dilution method in presence of verapamil
- Assay type: functional
- assay.context: H37Rv ATCC 27294, 672 h
Entry rule: numbers only, all in µM.

-- ask # get_value(readout='MIC', item= "O=C(Cn1c(=O)oc2cc([N+](=O)[O-])ccc21)Nc1ccccn1" )
-- reply 19.9

-- ask Please answer likewise for "O=C(Cn1c(=O)oc2cc(Cl)ccc21)NCc1ccco1"
-- reply 20.4

-- ask Quick one: "O=C(Cn1c(=O)oc2cc([N+](=O)[O-])ccc21)Nc1nc2ccccc2s1"
-- reply 33.8

-- ask Thanks! And "O=C(Cn1c(=O)oc2cc(Cl)ccc21)NCc1ccccn1" ?
-- reply 4.91

----------
Entries and their measured cytotoxicity at 72 h, 100 µM follow.
- assay.summary: Cytotoxicity against mouse RAW264.7 cells at 100 uM after 72 hrs by MTT assay
- Type: cell-based
- assay.context: read-out: INH
Report the figure in % without appending any unit label.

O=C(Cn1c(=O)oc2cc(Cl)ccc21)Nc1nc2ccc([N+](=O)[O-])cc2s1	14.2
O=C(Cn1c(=O)oc2cc(Cl)ccc21)NCc1ccccn1	40
O=C(Cn1c(=O)oc2cc(Cl)ccc21)Nc1ccccn1	43.7
O=C(Cn1c(=O)oc2ccccc21)Nc1ccccn1	28.4
O=C(Cn1c(=O)oc2cc([N+](=O)[O-])ccc21)NCc1cccs1	41

Shift focus to the following entry.
-- ask Any idea what cytotoxicity at 72 h, 100 µM was measured for "O=C(Cn1c(=O)oc2ccccc21)Nc1ccccc1" ?
-- reply 39.8

Value source: ChEMBL document CHEMBL3352380
